Assay: pharmacokinetic study of sobetirome in mice (t1/2)
Conditions: mouse, in vivo
measurement.type: half-life (h)
One number for each entry, in h.

Qu. Identify the reported half-life for the following entry. Cc1cc(OCC(=O)O)cc(C)c1Cc1ccc(O)c(C(C)C)c1
Ans. 1.5
